Tested on: 705 splice site (luciferase gene interrupted by a human β-globin intron mutated at nucleotide 705)
EXPERIMENT NOTES: pLuc/705 splice correction assay: luciferase production in HeLa pLuc/705 cells
Assay type: cell-based
CONDITION DESCRIPTION: HeLa pLuc705 cells, 24 hrs incubation; R9F2C-PMO (705-FL) conjugates with different linkers; range in brackets
Field: RLU/ug protein range. Provide a value for each of the substances that follow.

Lab note: R9F2C-705-FL: fluorescein-labeled peptide-PMO conjugate, thio-maleimide linker 6.8 Å (chain RRRRRRRRRFFC; antisense cctcttacctcagttaca; thio-maleimide linker; PMO; fluorescein; synthetic transport peptide; synthetic oligomer) gave RLU/ug protein range of 102 (4.9) RLU/ug protein

The recorded RLU/ug protein range for R9F2C-SMCC-705-F: R9F2C-705-FL conjugate with SMCC thio-maleimide linker (chain RRRRRRRRRFFC; antisense cctcttacctcagttaca; SMCC linker; PMO; fluorescein; synthetic transport peptide; synthetic oligomer) is 86 (1.4) RLU/ug protein

Noted for R9F2C-SPDP-705-FL: R9F2C-705-FL conjugate with SPDP disulfide (cleavable) linker (chain RRRRRRRRRFFC; antisense cctcttacctcagttaca; SPDP disulfide linker; PMO; fluorescein; synthetic transport peptide; synthetic oligomer) : its RLU/ug protein range reads 109 (2.9) RLU/ug protein

What the record says about R9F2C-KMUS-705-FL: R9F2C-705-FL conjugate with KMUS thio-maleimide linker (chain RRRRRRRRRFFC; antisense cctcttacctcagttaca; KMUS linker; PMO; fluorescein; synthetic transport peptide; synthetic oligomer) : RLU/ug protein range is 171 (14.3) RLU/ug protein

So, R9F2C-EMCS-705-FL: R9F2C-705-FL conjugate with EMCS thio-maleimide linker (chain RRRRRRRRRFFC; antisense cctcttacctcagttaca; EMCS linker; PMO; fluorescein; synthetic transport peptide; synthetic oligomer) ? Its RLU/ug protein range was 141 (4.3) RLU/ug protein

Given item R9F2C-SMPB-705-FL: R9F2C-705-FL conjugate with SMPB thio-maleimide linker (chain RRRRRRRRRFFC; antisense cctcttacctcagttaca; SMPB linker; PMO; fluorescein; synthetic transport peptide; synthetic oligomer) , the value recorded as its RLU/ug protein range is 123 (2.1) RLU/ug protein

Memo: R9F2C-LCSPDP-705-FL: R9F2C-705-FL conjugate with LCSPDP disulfide (cleavable) linker (chain RRRRRRRRRFFC; antisense cctcttacctcagttaca; LCSPDP disulfide linker; PMO; fluorescein; synthetic transport peptide; synthetic oligomer) , reported RLU/ug protein range: 181 (7.8) RLU/ug protein

Entry R9F2C-SBAP-705-F: R9F2C-705-FL conjugate with SBAP thio-ether linker (chain RRRRRRRRRFFC; antisense cctcttacctcagttaca; SBAP thioether linker; PMO; fluorescein; synthetic transport peptide; synthetic oligomer) ; RLU/ug protein range = 98 (3.2) RLU/ug protein

# credit: patent US10905782B2
